Test system: CAKI-1
Assay: NCI tumour cell line growth inhibition, 48 h
Activity calls are given as the source filed them. Rule as the data show it: active = GI50 up to about 1.1 µM and inactive = higher.
Each entry below carries its reported GI50.

{"compound": "O=C1c2cc3c(cc2CC12Cc1cc4c(cc1C2=O)CCC4)CCCC3 (stereo unspecified)", "targetSystem": "CAKI-1", "result": "> 100 µM (inactive)"}
{"compound": "COC1CC(O)C(OC(=O)c2ccccc2)C(C)O1 (stereo unspecified)", "targetSystem": "CAKI-1", "result": "> 100 µM (inactive)"}
{"compound": "CCOC(=O)C1([Se]c2ccccc2)CCCC1=O (stereo unspecified)", "targetSystem": "CAKI-1", "result": "44.5 µM (inactive)"}
{"compound": "C[Si](C)(OCCS(=O)(=O)O)C1(Cc2cccc3ccccc23)S(=O)(=O)OCCOS1(=O)=O", "targetSystem": "CAKI-1", "result": "17.5 µM (inactive)"}
{"compound": "COCOC1C=CCCCC2=CC(C)=C(CC1)O2 (stereo unspecified)", "targetSystem": "CAKI-1", "result": "> 100 µM (inactive)"}
{"compound": "O=C(O)C1(C(=O)O)CC1(C(=O)O)C(=O)O", "targetSystem": "CAKI-1", "result": "> 100 µM (inactive)"}
{"compound": "Cc1ccc(S(=O)(=O)N/N=C(/CC(=O)c2c(C)[n+]([O-])c3ccccc3[n+]2[O-])C(=O)Nc2ccc(C)c(C)c2)cc1", "targetSystem": "CAKI-1", "result": "> 100 µM (inactive)"}
{"compound": "O=C(CC1C(=O)Nc2ccccc2S1(=O)=O)Nc1ccc(Cl)cc1 (stereo unspecified)", "targetSystem": "CAKI-1", "result": "16.5 µM (inactive)"}
{"compound": "COC(=O)CC(c1ccccc1)C1(c2ccccc2)SCCS1 (stereo unspecified)", "targetSystem": "CAKI-1", "result": "262 µM (inactive)"}
{"compound": "CCN(CC)CCCNC(=O)c1ccc([N+](=O)[O-])cc1O", "targetSystem": "CAKI-1", "result": "> 100 µM (inactive)"}

Field: GI50 (CAKI-1). Entry: `Cn1cc(C(=O)c2ccccc2)c2ccccc2c1=O`
50.6 µM (inactive)

###

Tested on: HOP-18
Assay: NCI tumour cell line growth inhibition, 48 h
Calls of active or inactive are those of the source. No stated cut-off is given here; in the data, active = GI50 up to about 1.1 µM and inactive = higher.
# output must be one of T (active), F (inactive)

{"compound": "Cc1ccc(S(=O)(=O)OCC/C(=C\\[Si](C)(C)C)c2ccccc2)cc1", "targetSystem": "HOP-18", "classLabel": "F"}

Which outcome did this test record for the compound CC(SC1=CC(=O)c2c(Cl)ccc(O)c2C1=O)C(=O)O (stereo unspecified) ?
F

Which outcome did this test record for the compound C=C(C#N)C1OCC2OC(C)(C)OC21 (stereo unspecified) ?
F

Which outcome did this test record for the compound `CSC1=Nc2ccccc2N=C(c2ccc(Cl)cc2)C1` ?
T

Which outcome did this test record for the compound O=C1NC(=O)C2(CCc3ccc(N(CCCl)CCCl)cc32)N1 (stereo unspecified) ?
F

Which outcome did this test record for the compound `CC(=O)/C(=C\c1ccco1)C(=O)Nc1ccccc1` ?
F

Which outcome did this test record for the compound `O=C1c2ccccc2C(=O)c2sc(Nc3ccc(Cl)cc3)nc21` ?
F

###

Tested on: OVCAR-5
Assay: NCI tumour cell line growth inhibition, 48 h
Calls of active or inactive are those of the source. Rule as the data show it: active = GI50 up to about 1.1 µM and inactive = higher.
experimentalReadout: GI50

Look over these answered cases.
{"molecule": "Cc1nc(-c2ccc(/N=C/c3ccc(N(CCOS(C)(=O)=O)CCOS(C)(=O)=O)cc3C)cc2)cs1", "GI50": "30.8 µM (inactive)"}
{"molecule": "CC(C)(C)[Si](C)(C)O/N=C\\c1cccc(O[Si](C)(C)C(C)(C)C)c1", "GI50": "20.1 µM (inactive)"}
{"molecule": "CSc1nc(SC)c2c(CN=[N+]=[N-])c(Br)n(Cc3ccccc3)c2n1", "GI50": "> 100 µM (inactive)"}
{"molecule": "C1=CC2=CC=CC3c4nc5ccc6ccccc6c5nc4C(=C1)C23 (stereo not given)", "GI50": "> 100 µM (inactive)"}

What does the data say about its GI50? Entry: `N=C(N)NS(=O)(=O)c1ccc(/N=N/c2c(O)c(C(=O)O)cc3ccccc23)cc1`
> 100 µM (inactive)

###

Test system: SN12C
Experiment: NCI tumour cell line growth inhibition, 48 h
Calls of active or inactive are those of the source. No stated cut-off is given here; in the data, active = GI50 up to about 1.1 µM and inactive = higher. Non-standard residues stand in square brackets, D forms with d. Residues, ends and D or L forms follow the SMILES beside them. ξ: configuration not given here. *: point of attachment. X18 = COC1=CC(=O)N(C(=O)C(O*)C(C)C)C1Cc1ccccc1; ξNMe2Val = CC(C)C(C(=O)*)N(C)C; NMeV = CN[CH](C(=O)O)C(C)C
Each entry below carries its reported GI50.

Look over these answered cases.
{"compound": "CC1(Cl)C(=O)NC(=O)N(C2CC(N=[N+]=[N-])C(CO)O2)C1N=[N+]=[N-] (configuration not stated)", "result": "> 100 µM (inactive)"}
{"compound": "O=C(O)CC12C3C4C5C3C1C5C42 (configuration not stated)", "result": "> 100 µM (inactive)"}
{"compound": "O=[N+]([O-])c1ccc(Cl)cc1-n1nc(-c2ccccc2)cc1-c1ccccc1", "result": "> 100 µM (inactive)"}
{"compound": "CN(C(=S)Cc1ccc(Cl)c(Cl)c1)C1CCCC[C@@H]1N1CCCC1 (some centres not stated)", "result": "63.7 µM (inactive)"}
{"compound": "COc1ccc(-c2cc(=O)c3cc(C)c(C)c(C(=O)O)c3o2)cc1", "result": "> 100 µM (inactive)"}
{"compound": "Clc1cccc(N2CCN(CCN3CCc4c([nH]c5ccccc45)C3c3cccnc3)CC2)c1 (configuration not stated)", "result": "43.6 µM (inactive)"}
{"compound": "OC(c1ccc(Cl)cc1)(c1ccc(Cl)cc1)c1cncnc1", "result": "26.7 µM (inactive)"}
{"compound": "N=S(=O)(c1ccccc1)c1ccccc1", "result": "> 100 µM (inactive)"}

What does the data say about its GI50? Entry: `Cc1ccc2c(c1)S(=O)(=O)c1ccc3ccccc3c1N2`
> 100 µM (inactive)

What does the data say about its GI50? Entry: `Cc1ccccc1/C=C/C(=O)c1ccccc1`
> 10 µM (inactive)

What does the data say about its GI50? Entry: `[O-][N+]1=NC(c2ccccc2)=C1c1ccccc1`
> 50 µM (inactive)

What does the data say about its GI50? Entry: `COc1cc(/C=C/C(=O)N[C@@H]2C(=O)N3[C@@H]2SC(C)(C)[C@@H]3C(=O)O)ccc1O`
> 100 µM (inactive)

What does the data say about its GI50? Entry: CCCC(=O)OC1C(CO)OC(n2cc(F)c(=O)[nH]c2=O)C1F (configuration not stated)
15.4 µM (inactive)

What does the data say about its GI50? Entry: COC1=CC(=O)N(C(=O)C(OC(=O)C2CCCN2C(=O)C2CCCN2C(=O)C(C(C)C)N(C)C(=O)C(NC(=O)C(C(C)C)N(C)C)C(C)C)C(C)C)C1Cc1ccccc1 (configuration not stated) (ξNMe2Val-V[NMeV]PP-X18; configuration not given here)
0.00188 µM (active)

What does the data say about its GI50? Entry: `Cn1c(=O)cc(NCc2ccc(Cl)cc2)[nH]c1=O`
> 100 µM (inactive)

###

Test system: NCI/ADR-RES
Test: NCI tumour cell line growth inhibition, 48 h
Active and inactive are the calls of the source. No stated cut-off is given here; in the data, active = GI50 up to about 1.1 µM and inactive = higher.
experimentalReadout: GI50

Look over these answered cases.
{"molecule": "CCCCCCCCCCCCOCC(COP(=O)(O)OCCN=[N+]=[N-])OC(=O)CCCCCCCCCCC (configuration not stated)", "GI50": "> 100 µM (inactive)"}
{"molecule": "CC(=O)c1ccc(/N=N/c2ccc3nonc3c2N)cc1", "GI50": "> 100 µM (inactive)"}
{"molecule": "OC[C@H]1NC[C@@H](O)[C@@H](O)[C@H]1O", "GI50": "> 100 µM (inactive)"}

What does the data say about its GI50? Entry: Cc1ccc(S(=O)(=O)NC2C(=O)c3ccccc3C(=O)C2n2cnc3ccccc32)cc1 (configuration not stated)
22.1 µM (inactive)

What does the data say about its GI50? Entry: `O=c1c2ccccc2n2nnc3ccc(NCCCNCCNCCCNc4ccc5nnn6c7ccccc7c(=O)c4c56)c1c32`
12.6 µM (inactive)

###

Tested on: OVCAR-3
Experiment: NCI tumour cell line growth inhibition, 48 h
Activity calls are given as the source filed them. Cut-off read from the data, not from the text of the source: active = GI50 up to about 1.1 µM and inactive = higher.
experimentalReadout: GI50

Look over these answered cases.
{"compound": "CCCCNC(=O)C1=C(C)NC(C)=C(C(=O)NCCCC)C1", "targetSystem": "OVCAR-3", "GI50": "> 100 µM (inactive)"}
{"compound": "O=C(Oc1cccc2cccnc12)c1cc2cc(CCl)ccc2oc1=O", "targetSystem": "OVCAR-3", "GI50": "3.68 µM (inactive)"}
{"compound": "CCc1c(OC(C)=O)c2c(NC3OCC(OC(C)=O)C(OC(C)=O)C3OC(C)=O)nc(SC)nc2oc1=O (stereo not given)", "targetSystem": "OVCAR-3", "GI50": "> 100 µM (inactive)"}

What does the data say about its GI50? Entry: CC1OC(OC2C(O[C@H]3CC[C@@H]4C(=CC[C@@H]5[C@@]4(C)C(=O)C[C@]4(C)[C@@H]([C@H](C)CC[C@@H](O)C(C)(C)O)CC[C@@]54C)C3(C)C)OC(CO)C(O)C2O)C(O)C(O)C1O (stereo not given in full)
> 100 µM (inactive)

What does the data say about its GI50? Entry: `COc1ccc(C)cc1NC(=S)N/N=C/c1ccc(SC)cc1`
38.9 µM (inactive)

What does the data say about its GI50? Entry: `COc1cc(C)c(/C=C2/N=C(c3ccccc3)OC2=O)c([N+](=O)[O-])c1OC`
> 100 µM (inactive)

What does the data say about its GI50? Entry: C[n+]1c2ccccc2c(CNC(CCC(N)=O)C(=O)O)c2ccccc21 (stereo not given)
2.31 µM (inactive)
